Molecular target: T1, Nrd1 307-491 G409A (Saccharomyces cerevisiae, UniProt P53617 307-491, G409A)
T1 sequence: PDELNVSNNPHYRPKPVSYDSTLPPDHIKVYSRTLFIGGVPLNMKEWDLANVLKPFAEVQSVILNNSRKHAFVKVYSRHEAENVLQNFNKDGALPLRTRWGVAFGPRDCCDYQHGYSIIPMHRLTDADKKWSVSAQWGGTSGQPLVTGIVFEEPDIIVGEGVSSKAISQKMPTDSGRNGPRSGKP
Test: fluorescence anisotropy; FA: 10 nM RNA, 50 mM sodium phosphate pH 8, 150 mM NaCl, 10 mM beta-mercaptoethanol, 20 C (protein stock in 300 mM NaCl); NMR: same buffer with 300 mM NaCl, 20
Conditions: protein: recombinant; tags: C-terminal His6; label: 5' fluorescein or TAMRA (FA); unlabeled (NMR)
Kindly state pKd for each of the entries shown.
// field semantics: pKd = negative decimal log of concentration (mol/L)

Q: If you can, please state the reported pKd value of GCGGGGC (ssRNA) .
Result: 4.52

Q: If you can, please state the reported pKd value of GUAA (ssRNA) .
Result: 3.80

The measured values listed here are drawn from paper PMC4081072.
